- subject of test: IKZF1 adjoined to nanoluciferase (Nluc) (Homo sapiens (Human))
- method description: IKZF1 Dual Luciferase Assay
- Type: cell-based
- measurement setup: 4 hours; read-out: Nluc/Fluc IKZF1 IC50
property measured: DC50 (nM)

>>> value_observed("CC(=O)Nc1cccc2c1C(=O)N(C1CCC(=O)NC1=O)C2=O (centres unmarked)")
444
>>> value_observed("O=C1CCC(N2C(=O)c3cccc(CNC(=O)C4CC4)c3C2=O)C(=O)N1 (centres unmarked)")
534

====

- subject of test: BRD4 (Homo sapiens (Human))
- method description: BRD4 AlphaScreen
- Assay type: binding
- measurement setup: Table 4-1
property measured: IC50 (nM)

[I] COc1cc(C(=O)NCCCOCCOCCOCCCNC(=O)COc2cccc3c2C(=O)N(C2CCC(=O)NC2=O)C3=O)ccc1Nc1ncc2c(n1)N(C)c1ccccc1C(=O)N2C (centres unmarked) [dBET12]
[II] Cc1cnc(Nc2ccc(N3CCN(C(=O)CCCNC(=O)COc4cccc5c4C(=O)N(C4CCC(=O)NC4=O)C5=O)CC3)cc2)nc1Nc1cccc(S(=O)(=O)NC(C)(C)C)c1 (centres unmarked) [dBET20]
**Q:** Compare I and II and name the one whose reported IC50 is smaller. Returns: label corresponding to the selected item.
**A:** I
(I: 2080 nM, II: 5700 nM)
